Recorded measurements of Ki, one per entry
TARGET_ENTITY: Neuronal acetylcholine receptor; alpha4/beta2 (Homo sapiens, UniProt P17787+P43681)
Sequence (P17787 whole entry): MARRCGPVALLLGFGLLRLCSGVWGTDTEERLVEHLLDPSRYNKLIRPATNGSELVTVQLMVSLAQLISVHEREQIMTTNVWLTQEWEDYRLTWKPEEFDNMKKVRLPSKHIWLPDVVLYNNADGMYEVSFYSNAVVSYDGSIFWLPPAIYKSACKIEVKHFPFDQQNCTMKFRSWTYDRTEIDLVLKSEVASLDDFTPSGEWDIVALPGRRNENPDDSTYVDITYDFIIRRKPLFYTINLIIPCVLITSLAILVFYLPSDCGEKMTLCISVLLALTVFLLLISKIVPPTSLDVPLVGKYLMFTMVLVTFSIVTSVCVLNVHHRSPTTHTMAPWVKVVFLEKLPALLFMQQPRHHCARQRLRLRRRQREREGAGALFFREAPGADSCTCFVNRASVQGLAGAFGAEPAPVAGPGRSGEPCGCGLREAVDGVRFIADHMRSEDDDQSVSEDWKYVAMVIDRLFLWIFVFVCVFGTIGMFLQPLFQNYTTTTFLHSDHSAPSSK
Sequence (P43681 whole entry): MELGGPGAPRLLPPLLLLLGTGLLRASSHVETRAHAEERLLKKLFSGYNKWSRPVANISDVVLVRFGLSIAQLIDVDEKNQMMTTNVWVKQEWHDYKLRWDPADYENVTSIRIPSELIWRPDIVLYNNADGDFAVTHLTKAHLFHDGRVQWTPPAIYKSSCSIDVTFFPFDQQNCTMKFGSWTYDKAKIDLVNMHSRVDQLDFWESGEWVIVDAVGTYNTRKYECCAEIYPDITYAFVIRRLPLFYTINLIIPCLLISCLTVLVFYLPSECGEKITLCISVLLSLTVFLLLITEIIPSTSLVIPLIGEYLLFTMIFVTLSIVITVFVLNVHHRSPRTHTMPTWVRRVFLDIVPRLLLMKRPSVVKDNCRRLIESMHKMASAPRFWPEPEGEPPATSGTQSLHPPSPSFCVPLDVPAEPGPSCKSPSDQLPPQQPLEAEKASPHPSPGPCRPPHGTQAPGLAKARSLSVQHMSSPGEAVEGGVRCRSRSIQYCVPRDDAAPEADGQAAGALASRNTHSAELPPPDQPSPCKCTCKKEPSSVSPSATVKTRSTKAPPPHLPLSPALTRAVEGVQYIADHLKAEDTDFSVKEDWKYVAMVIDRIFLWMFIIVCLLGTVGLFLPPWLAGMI
ASSAY_PROCEDURE: Binding affinity against nicotinic acetylcholine receptor alpha4-beta2 in human HEK293 cells using [3H]- nicotine as radioligand
The response must be a number in nM with no trailing unit.

These solved cases illustrate the format of a correct answer.
Problem: For the compound COc1ccc2c(c1O)CC1CNCC2C1 (stereo not drawn) , report Ki.
Solution: 13

Problem: Answer with the recorded Ki for the compound listed here: CC(C)(O)c1ccc2c(c1)CC1CNCC2C1 (stereo not drawn)
Solution: 264

Problem: Tell me measured Ki for c1cc2c(c3c1CC1CNCC3C1)OCO2 (stereo not drawn) please.
Solution: 5.7

Problem: Consider the compound COc1ccc(-c2ccc3c(c2)CC2CNCC3C2)cc1 (stereo not drawn) and give its recorded Ki.
Solution: 370

Problem: Give a short answer stating reported Ki for COc1ccc2c(c1)CC1CNCC2C1 (stereo not drawn) .
Solution: 1.4

Others:
Problem: Please give measured Ki of the following entry: O=[N+]([O-])c1ccc2c(c1)CC1CNCC2C1 (stereo not drawn)
Solution: 4.9

Problem: Please report Ki for the following compound: CCOc1ccc2c(c1)CC1CNCC2C1 (stereo not drawn)
Solution: 13

Problem: Please report Ki for the following compound: CC(C)c1ccc2c(c1)CC1CNCC2C1 (stereo not drawn)
Solution: 72

Problem: Could you please provide reported Ki for Oc1ccc2c(c1)CC1CNCC2C1 (stereo not drawn) ? Thanks!
Solution: 90

Problem: # return recorded Ki for input O=[N+]([O-])c1cccc2c1C1CNCC(C2)C1 (stereo not drawn)
Solution: 14
